Target: T1, recombinant human IL-12 (rhIL-12) (human, UniProt P29459 23-219; P29460 23-328)
T1 construct: disulfide-linked p35/p40 heterodimer (p70); also called rec. human IL12; IL-12 p70
T1 sequence (looked up) 1: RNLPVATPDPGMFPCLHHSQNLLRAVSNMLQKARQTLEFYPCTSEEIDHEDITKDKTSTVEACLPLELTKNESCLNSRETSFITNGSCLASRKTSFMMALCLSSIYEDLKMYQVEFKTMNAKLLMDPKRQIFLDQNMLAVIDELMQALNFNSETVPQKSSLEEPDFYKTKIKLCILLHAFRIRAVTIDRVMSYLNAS
T1 sequence (looked up) 2: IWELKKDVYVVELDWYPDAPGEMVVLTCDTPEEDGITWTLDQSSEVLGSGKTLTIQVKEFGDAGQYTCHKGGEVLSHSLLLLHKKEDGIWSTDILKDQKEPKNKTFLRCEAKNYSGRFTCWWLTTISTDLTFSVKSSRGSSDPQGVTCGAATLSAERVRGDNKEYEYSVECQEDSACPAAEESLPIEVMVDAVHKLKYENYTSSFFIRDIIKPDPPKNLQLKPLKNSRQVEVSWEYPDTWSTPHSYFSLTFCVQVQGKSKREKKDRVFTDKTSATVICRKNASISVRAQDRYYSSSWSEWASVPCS
Test: BIAcore (SPR) off-rate on IL-12 chip
property measured: koff (s⁻¹)

binder: Y55 (scFv, V domains shown) VH: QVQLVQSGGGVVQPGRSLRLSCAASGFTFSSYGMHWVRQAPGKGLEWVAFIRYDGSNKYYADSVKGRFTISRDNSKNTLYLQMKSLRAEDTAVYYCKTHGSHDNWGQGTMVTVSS VL: SYVLTQPPSVSGTPGQRVTISCSGGRSNIGSNTVKWYQQLPGTAPKLLIYGNDQRPSGVPDRFSGSKSGTSASLAITGVQAEDEADYYCQSYDRGTHFQMYFGTGTKVTVLG
result number: 0.00106
--
binder: 99-H11 (scFv, V domains shown) VH: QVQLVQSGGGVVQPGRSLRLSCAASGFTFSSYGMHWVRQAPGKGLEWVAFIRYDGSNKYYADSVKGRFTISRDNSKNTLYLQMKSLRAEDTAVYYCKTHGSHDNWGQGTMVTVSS VL: SYVLTQPPSVSGTPGQRVTISCSGGRSNIGSNTVKWYQQLPGTAPKLLIYGNDQRPSGVPDRFSGSKSGTSASLAITGVQAEDEADYYCQSYSTHMPISRVFGTGTKVTVLG
result number: 0.0049
--
binder: 99-F7 (scFv, V domains shown) VH: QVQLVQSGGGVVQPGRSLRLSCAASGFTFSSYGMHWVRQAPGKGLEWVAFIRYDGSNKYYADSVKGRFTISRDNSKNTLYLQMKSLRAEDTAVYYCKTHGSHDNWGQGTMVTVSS VL: SYVLTQPPSVSGTPGQRVTISCSGGRSNIGSNTVKWYQQLPGTAPKLLIYGNDQRPSGVPDRFSGSKSGTSASLAITGVQAEDEADYYCQSYPNSYPISRVFGTGTKVTVLG
result number: 0.0048
